# Assay Name: Cell Viability - BJ (AID 421);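 further: cells exposed to compound for 40 hours at 37 °C before readout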
# Study Conditions: BJ fibroblast viability, qHTS
Inconclusive results are not listed. Active and inactive are the calls of the source. The call rests on the fitted dose curve.
Outcomes: active, inactive

Compound	Category
O=[N+]([O-])c1c(Cl)c(Cl)cc(Cl)c1Cl	inactive
O=[N+]([O-])c1cc([N+](=O)[O-])c2ccccc2c1	inactive
C1CCC(NC2CCCCC2)CC1	inactive
CCCCCCCCc1ccc(O)cc1	inactive
CCCCC(CC)COC(=O)c1ccccc1C(=O)OCC(CC)CCCC (configuration not stated)	inactive
Cc1cc(O)ccc1Cl	inactive
CC(=O)[O][Hg][c]1ccccc1	active

---

# System: HaCat
# Assay Name: Cytotoxic Profiling of Annotated Libraries Using Quantitative High-Throughput Screening (AID 1296008); further: nearly all actives have a fitted effect of over 60% in size
# Study Conditions: Five cell lines viability, CellTiter-Glo ATP luminescence, 48-72 h
# Description: Cell-based phenotypic screening is a commonly used approach to discover biological pathways, novel drug targets, chemical probes and high-quality hit-to-lead molecules. […] A pintool (Kalypsys) was used to transfer 23 nL of compound solution to the 1536-well assay plates. […] Plates were left at room temperature for 10 min before imaging the ATP-coupled luminescence using a ViewLux microplate imager (PerkinElmer, Waltham, MA).
Records with an inconclusive call do not appear. Calls of active or inactive are those of the source. Calls follow the shape of the dose curve; as a rule, active = well fitted inhibition curve with a large enough effect; inconclusive = small, poorly fitted or top-dose-only effect; inactive = flat fitted curve, though single readings scatter.
Labels: active, inactive

Molecule	Category
O=C(O)COc1ccccc1	inactive
NC1=NC(=O)N2CC12 (stereo not drawn)	inactive
CC(C)[C@]12O[C@H]1[C@@H]1O[C@]13[C@]1(O[C@H]1C[C@H]1C4=C(CC[C@@]13C)C(=O)OC4)[C@@H]2O	active
